test: physchem; details: water
*1 amine or outer side, *2 acyl side, *3 side chain or, on linkers, in order; H or OH if unused. Where a SMILES comes first, the peptide text is derived from it. Bridges are numbered along the chain shown (N, C = ends). [ ]: non-standard residue; d: D form. The star is where a group is joined. ξ: configuration not given here. ξThr(3R)(O-yl) = C[C@@H](O[*:3])C(N[*:1])C(=O)[*:2]; βAsp = O=C(O)[C@H](CC(=O)[*:2])N[*:1]; His(π-Me) = Cn1cncc1C[C@H](N)C(=O)O; For = O=C*
measurement-kind: solubility

1. C[C@H]1OC(=O)C[C@@H](C(=O)O)NC(=O)[C@H](CO)NC(=O)[C@@H](CCCNC(=N)N)NC(=O)CNC(=O)[C@H](Cc2ccccc2)NC(=O)[C@@H](CO)NC(=O)C[C@@H](C(=O)O)NC(=O)[C@H](Cc2cncn2C)NC(=O)C1NC(=O)[C@@H](CCCNC(=N)N)NC(=O)[C@@H](NC(=O)[C@H](Cc1c[nH]c2ccccc12)NC=O)[C@@H](C)O (stereo partly drawn) [compound of Formula IV] (For-WT[dR][ξThr(3R)(O-yl)][His(π-Me)][βAsp][dS]FG[dR]SD-OH; ester 4-12) | > 40 mg/mL

Origin of values: patent US20240287139A1
